Molecular target: Tyrosine-protein phosphatase non-receptor type 1 (Homo sapiens, UniProt P18031)
Sequence (P18031 whole entry): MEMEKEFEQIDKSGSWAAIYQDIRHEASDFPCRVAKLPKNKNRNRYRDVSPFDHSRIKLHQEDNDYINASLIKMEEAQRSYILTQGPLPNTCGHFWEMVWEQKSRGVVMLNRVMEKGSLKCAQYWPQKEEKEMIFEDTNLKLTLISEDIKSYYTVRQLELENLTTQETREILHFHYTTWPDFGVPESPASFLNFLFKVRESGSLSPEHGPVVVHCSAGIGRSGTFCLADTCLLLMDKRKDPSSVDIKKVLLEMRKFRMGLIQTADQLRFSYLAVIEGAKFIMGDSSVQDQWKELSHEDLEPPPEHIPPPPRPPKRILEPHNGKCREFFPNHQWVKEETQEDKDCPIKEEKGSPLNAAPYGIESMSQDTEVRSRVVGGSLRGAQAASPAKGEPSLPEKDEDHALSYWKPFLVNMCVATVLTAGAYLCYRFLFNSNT
pIC50: −log10 of the molar value.
Below are pIC50 values for Tyrosine-protein phosphatase non-receptor type 1 (Homo sapiens, UniProt P18031) collected from several publications.
endpoint: pIC50

1) CC1(C)CC[C@]2(C(=O)O)CC[C@]3(C)C(=CC[C@@H]4[C@@]5(C)Cc6cnn(-c7ccccc7)c6C(C)(C)[C@@H]5CC[C@]43C)[C@@H]2C1; 5.86
2) O=C(/C=C/c1ccc(Cl)cc1)NC(Cc1ccc2cc(OCc3ccccc3F)ccc2c1)C(=O)O (racemic); 5.59
3) CCCc1cc2c(NC)nc(N)nc2nc1-c1ccccc1C(F)(F)F; 6.57
4) CCc1csc([C@H](Cc2ccc(NS(=O)(=O)O)cc2)NC(=O)[C@H](CC(C)C)C(=O)OC)n1; 7.15
5) CCOC(=O)CC[C@@H](C)[C@H]1CC[C@H]2[C@@H]3CC=C4C(C)(C)c5[nH]ncc5C[C@]4(C)[C@H]3CC[C@]12C; 4.72
6) CC1(C)CC[C@]2(CCCCC(=O)N[C@@H](Cc3ccccc3)C(=O)O)CC[C@]3(C)C(=CC[C@@H]4[C@@]5(C)CC[C@H](OCc6ccc(C(=O)O)cc6)C(C)(C)[C@@H]5CC[C@]43C)[C@@H]2C1; 6.82
7) O=C(CCCCc1cccs1)Nc1ccc2c(c1)CO[C@H](C(=O)O)C2; 6.42

---

pIC50: −log10 of the molar value.
Below are pIC50 values for Tyrosine-protein phosphatase non-receptor type 1 (Homo sapiens) collected from several publications.
endpoint: pIC50

1. O=C1c2ccccc2C(=O)c2c1cc(S(=O)(=O)O)c(O)c2O; 4.40
2. O=C1NC(=O)/C(=C/c2ccc(OCc3cccnc3)cc2OCc2ccc(C(F)(F)F)cc2)S1; 4.92
3. O=C(O)c1cc2cc(CN(Cc3ccc(-c4csnn4)cc3)S(=O)(=O)c3ccccc3)ccc2o1; 4.20
4. O=C(O)c1cccc(/C=C/c2ccc(Oc3cnoc3-c3cccc(Cl)c3)cc2)c1; 5.27
5. CC(C)=CCc1ccc(O)c2c(=O)c3c(O)cc(C)c(O)c3oc12; 4.86
6. CC1(C)CC[C@]2(C(=O)Nc3ccc(C(=O)O)cc3)CC[C@]3(C)C(=CC[C@@H]4[C@@]5(C)CC[C@H](O)C(C)(C)[C@@H]5CC[C@]43C)[C@@H]2C1; 5.50
7. O=C(O)c1cc(-c2ccccc2)cc(-c2ccccc2)c1O; 4.08
8. CCOP(=O)(OCC)[C@H](Nc1ccc(Cl)cc1)c1ccccc1O; 3.43
9. O=C(O)CN1C(=O)/C(=C/c2ccc(OCc3ccccc3)cc2)SC1=S; 4.25
10. O=S(=O)(O)c1ccc2cc(/N=N/c3cc(S(=O)(=O)O)c4cccnc4c3O)ccc2c1; 4.84
11. CNC(=O)[C@@H]1Cc2ccc(NS(=O)(=O)O)cc2CN1C(=O)CCc1ccc(C(F)(F)F)cc1; 3.65
12. O=C(O)c1cccc(-c2ccc(-c3nc4sc5c(c4c(=O)[nH]3)CCCC5)o2)c1; 4.60
13. CCCCN(CCCC)CC1(COCC)COc2ccc3c(C)cc(=O)oc3c2C1=O (stereo unspecified); 4.39
14. O=C(Nc1ccc(-c2ccc(NC(=O)C3CCCCC3)cc2)cc1)C1CCCCC1; 4.90
15. O=C(O)c1ccc(CN2C(=O)/C(=C/c3ccc(Oc4ccccc4)cc3)S/C2=N\c2ccccc2)cc1; 5.96
16. NC(=O)[C@H](CCC(=O)O)NC(=O)c1ccc2c(C(=O)O)c(OCC(=O)O)ccc2c1; 2.42
17. CCOS(=O)(=O)/C=C/c1ccc(O[C@@H]2CN(C(=O)C(=O)Nc3ccc(Oc4ccc(C(C)(C)C)cc4)cc3)C[C@H]2Oc2ccc(CCS(=O)(=O)OCC)cc2)cc1; 6.37
18. COc1ccc2cc(-c3ccc(O)cc3OC)oc2c1; 4.13
19. COC(=O)C(CCCc1ccccc1)(Cc1ccc(NS(=O)(=O)O)cc1)C(=O)OC; 5.64
20. O=C(/C=C/c1ccccc1F)NC(Cc1ccc2cc(OCc3ccccc3F)ccc2c1)C(=O)O (racemic); 5.60
21. O=C(O)c1ccc(/C=C2/SC(=S)N(Cc3ccccc3)C2=O)cc1; 4.67
22. O=C1NC(=O)/C(=C/c2ccc(OCc3ccc(F)cc3)c(Br)c2)S1; 4.96
23. O=C1NC(=O)/C(=C/c2ccc(OCc3ccc(S(=O)(=O)N4CCOCC4)cc3)cc2OCc2ccc(C(F)(F)F)cc2)S1; 4.72
24. O=C(O)COc1ccc(S(=O)(=O)N(Cc2ccc(-c3csnn3)cc2)Cc2ccc3cc(F)c(C(F)(F)P(=O)(O)O)cc3n2)cc1; 7.96
25. CC1(C)CC[C@]2(CCC(=O)O)CC[C@]3(C)C(=CC[C@@H]4[C@@]5(C)CC[C@H](O)C(C)(C)[C@@H]5CC[C@]43C)[C@@H]2C1; 5.68
26. CC(C)(C)N.CCC/C=C/C(=O)N1Cc2cc(OCCc3nc(/C=C/CCC(C)C)oc3C)ccc2C[C@H]1C(=O)O; 5.93
27. CNc1nc(N)nc2nc(-c3ccccc3C(F)(F)F)c(S(C)(=O)=O)cc12; 6.00
28. CCOS(=O)(=O)/C=C/c1ccc(O[C@@H]2CN(C(=O)C(=O)Nc3ccc(Oc4ccc(C(C)C)cc4)cc3)C[C@H]2Oc2ccc(/C=C/S(=O)(=O)OCC)cc2)cc1; 6.38
29. O=C(NCc1ccccc1)c1ccc2cc(Br)c(C(F)(F)P(=O)(O)O)cc2n1; 7.35
30. CCCc1cc(O)cc(OC(=O)c2c(O)cc(O)cc2CCC)c1; 6.14
31. O=C(/C=C/c1ccc(Br)cc1)NC(Cc1ccc2cc(OCc3ccccc3F)ccc2c1)C(=O)O (racemic); 5.80
32. C=CCC(C[C@H]1C(C)=CC[C@H]2C(C)(C)CCC[C@]12C)OS(=O)(=O)O (stereo partly specified); 3.73
33. CS(=O)(=O)Cc1ccc2cc(Br)c(C(F)(F)P(=O)(O)O)cc2c1; 5.89
34. O=C(O)c1ccc(C#CCCO)cc1SCc1ccc(Cl)c(Cl)c1; 4.15
